All figures here come from ChEMBL document CHEMBL1201862.

System: UACC-257
Experiment: NCI tumour cell line growth inhibition, 48 h
Calls of active or inactive are those of the source. No stated cut-off is given here; in the data, active = GI50 up to about 1.1 µM and inactive = higher.
quantity: GI50

## Task // fetch UACC-257 GI50 for CC1=C2C(=CC(C)(C)[C@@H]2O)C(=O)[C@](C)(O)C12CC2 [ILLUDIN M]
## Result 0.08 µM (active)

Now examine the next entry.
## Task // fetch UACC-257 GI50 for CC(C)(C)OC(=O)N1C(OP(=O)(Oc2ccccc2)Oc2ccccc2)=COc2cccnc21
## Result 30 µM (inactive)

----------
Test system: SF-295
Assay: NCI tumour cell line growth inhibition, 48 h
Activity calls are given as the source filed them. Cut-off read from the data, not from the text of the source: active = GI50 up to about 1.1 µM and inactive = higher.
quantity: GI50

Worked examples, 3 compounds total:
## Task Quick one: GI50 for Cc1cc(C)nc(NS(=O)(=O)c2ccc(NNC(=O)c3cccc4c(NNc5ccc(S(=O)(=O)Nc6nc(C)cc(C)n6)cc5)c5ccccc5nc34)cc2)n1 ?
## Result 31.8 µM (inactive)

## Task And what about the compound CCOc1cc2c(cc1O)/C(=N/NS(=O)(=O)c1ccc(C)cc1)C[C@@H]1[C@@H]2CC[C@]2(C)[C@@H](O)CC[C@@H]12 ?
## Result 3.15 µM (inactive)

## Task And what about the compound C=C(C)[C@@]1(O[Si](C)(C)C)CCCC[C@@H]1CC(Sc1ccccc1)Sc1ccccc1 ?
## Result 12.4 µM (inactive)

New cases:
## Task Quick one: GI50 for CC(=O)OCC1C(=O)OCC1C(=O)N1Cc2cc3ccccc3nc2C1 (centres undefined) ?
## Result 16.1 µM (inactive)

## Task And what about the compound CCN1CCC(O)(/C=C/c2ccc(OC)cc2)C(C(=O)/C=C/c2ccc(OC)cc2)C1 (centres undefined) ?
## Result 11.8 µM (inactive)
